B1: ANKRD17 (parent)
chain: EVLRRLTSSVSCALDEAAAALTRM

variants of: B1; assay: protein stability index of a GFP-peptide fusion (GPS, HEK-293T) (PSI 1-6); higher = more stable; details: c terminus: a fixed tail appended;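 also: lentivirally expressed fusions sorted by FACS into six bins by GFP to DsRed ratio, PSI derived from sequencing read proportions per bin multiplied by bin number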
value_kind: protein stability index
Numbers only.

Reference set (3 entries):
S8C	2.81
S11V	1.35
A17C	2.59

Batch request: protein stability index per item, same order as input.
1. A13P
2. E1S
3. E1D
4. E1C
5. A17D

1: 1.37; 2: 2.2; 3: 1.97; 4: 1.94; 5: 1.46
